Test system: Mycobacterium tuberculosis
Assay: Antimycobacterial activity against Pyrazinamide-resistant Mycobacterium tuberculosis ATCC 35828 assessed as inhibition of bacterial cell growth incubated for 7 days by resazurin microtiter assay
Type: functional
Details: ATCC 35828, 168 h
measured-endpoint: MIC (µM)
The response must be a number in µM with no trailing unit.

Sample records with MIC:
chemical_smiles=O=C1Oc2ccccc2N/C1=C\C(=O)c1cccs1 output_unit=µM value_reported=14.7
chemical_smiles=O=C1Oc2ccccc2N/C1=C\C(=O)N1CCOCC1 output_unit=µM value_reported=3.6

Query: Return reported MIC; argument: `O=C(NNC(=O)c1ccncc1)C(=O)Nc1ccc(Cl)cc1O`
Reply: 12

Query: Return reported MIC; argument: `COC(=O)/C=C1\Nc2cc(Cl)ccc2OC1=O`
Reply: 31

---

Test system: Mycobacterium tuberculosis
Test: Antimycobacterial activity against Pyrazinamide-resistant Mycobacterium tuberculosis ATCC 35828 assessed as inhibition of bacterial cell growth incubated for 7 days by resazurin microtiter assay
Assay type: functional
Conditions: ATCC 35828, 168 h
Reported values of MIC for individual entries
The response must be a number in µM with no trailing unit.

Sample records with MIC:
molecule=COC(=O)/C=C1\Nc2ccc(Cl)cc2OC1=O study_target="Mycobacterium tuberculosis" measured_endpoint=MIC value_reported=3.9
molecule=O=C(NNC(=O)c1ccncc1)C(=O)Nc1cc(Cl)ccc1O study_target="Mycobacterium tuberculosis" measured_endpoint=MIC value_reported=12
molecule=O=C1Oc2ccccc2N/C1=C\C(=O)c1c[nH]c2ccccc12 study_target="Mycobacterium tuberculosis" measured_endpoint=MIC value_reported=3.3
molecule=COC(=O)/C=C1\Nc2ccccc2OC1=O study_target="Mycobacterium tuberculosis" measured_endpoint=MIC value_reported=4.5
molecule="NNC(=O)c1ccncc1 [ISONIAZID]" study_target="Mycobacterium tuberculosis" measured_endpoint=MIC value_reported=1.8

Continue with the next molecule.
Query: For Mycobacterium tuberculosis, provide MIC of `O=C(NNC(=O)c1ccncc1)C(=O)Nc1ccccc1O` please.
Reply: 6.7
